- Tested on: 377384-186-R-J1-PDC complex spheroid viability;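 further: spheroids exposed to compounds for seven days before readout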
- test_summary: Anticancer human tumor 377384-186-R-J1-PDC patient-derived pancreatic carcinoma cell line growth inhibition [RAS]; active means viability on the fitted dose curve at most 10% of control; inactive means the rest
- condition_summary: second compound 0.003 µM; first compound 0.3 µM
Select the correct class. Options are active, inactive and nothing else.

Consider the following illustrative entries.
INSERT INTO results (molecule, label_class) VALUES
  ('CCc1c2c(nc3ccc(O)cc13)-c1cc3c(c(=O)n1C2)COC(=O)[C@]3(O)CC + CCn1c(-c2cccnc2C(C)OC)c2c3cc(ccc31)N1CCOC(CC(NC(=O)C(C(C)C)N(C)C(=O)C3(F)CCN(C(=O)C#CC(C)(C)N(C)C)CC3)C(=O)N3CCCC(N3)C(=O)OCC(C)(C)C2)C1', 'active'),
  ('CCc1c2c(nc3ccc(O)cc13)-c1cc3c(c(=O)n1C2)COC(=O)[C@]3(O)CC + CCn1c(-c2cc(N3CCN(C)CC3)cnc2C(C)OC)c2c3cc(ccc31)-c1csc(n1)CC(NC(=O)C1CC1C)C(=O)N1CCCC(N1)C(=O)OCC(C)(C)C2', 'active');

I would be grateful if you could indicate the recorded call for CC1(C)CCC(Nc2ncc(C(F)(F)F)c(-c3c[nH]c4c(P(C)(C)=O)c(C#N)ccc34)n2)CN1 (centres undefined) + CCn1c(-c2cc(N3CCN(C)CC3)cnc2C(C)OC)c2c3cc(ccc31)-c1csc(n1)CC(NC(=O)C1CC1C)C(=O)N1CCCC(N1)C(=O)OCC(C)(C)C2 .
active

What do you have for CC1(C)CCC(Nc2ncc(C(F)(F)F)c(-c3c[nH]c4c(P(C)(C)=O)c(C#N)ccc34)n2)CN1 (centres undefined) + CCn1c(-c2cccnc2C(C)OC)c2c3cc(ccc31)N1CCOC(CC(NC(=O)C(C(C)C)N(C)C(=O)C3(F)CCN(C(=O)C#CC(C)(C)N(C)C)CC3)C(=O)N3CCCC(N3)C(=O)OCC(C)(C)C2)C1 ?
inactive
